assay: Metabolic stability in plasma; assay type: in vitro ADME, CD-1 mouse; settings: CD-1, plasma; Mouse; test conc. 3 μM
Reported half-life at 3 μM values are given for each entry in this list.
measurementName: half-life at 3 μM (min)

{"columns": ["compound", "measurementName", "readoutUnit", "operator", "reportedMeasurement"],
 "data": [
  ["CCC(=O)N[C@H]1Cc2cccc(C(=O)O)c2OB1O", "half-life at 3 μM", "min", ">", 120],
  ["CCC(=O)N[C@H]1Cc2cccc(C(=O)OCOC(=O)C(CC)CC)c2OB1O", "half-life at 3 μM", "min", "=", 4.6],
  ["COCC1=C(C(=O)OC(C)OC(=O)OC(C)C)N2C(=O)[C@@H](NC(=O)/C(=N\\OC)c3csc(N)n3)[C@H]2SC1 (stereo partly drawn)", "half-life at 3 μM", "min", "=", 0.6]
]}

---

assay: Excipient screening: solubility in SEDDS excipients; format: physicochemical; details: Poloxamer 188, neat excipient, 65 °C, organic solvent or mixture, thermodynamic from solid, Poloxamer 188

{"columns": ["compound", "solubility"],
 "data": [
  ["CCOB1Oc2c(cccc2C(=O)OCOC(=O)C(CC)CC)C[C@@H]1NC(=O)CC [Compound 1-ethanolate]", "> 225 mg/mL"]
]}

---

target: CTX-M-15 (Escherichia coli); assay: Beta-lactamase enzyme inhibition (IC50)
pIC50: −log10 of the molar value.

{"columns": ["smilesString", "testedOn", "pIC50"],
 "data": [
  ["CCC(=O)N[C@H]1Cc2cccc(C(=O)O)c2OB1O", "CTX-M-15 (Escherichia coli)", 7.74]
]}

---

test: Single ascending dose pharmacokinetics, Solutol HS-15:Water (20:80); assay type: in vivo, Sprague-Dawley rats; settings: male, Sprague-Dawley, rat, plasma, iv, 10 mg/kg
measurementName: Cmax (ng/mL)

{"columns": ["compound", "reportedMeasurement"],
 "data": [
  ["CCC(=O)N[C@H]1Cc2cccc(C(=O)O)c2OB1O [Compound 2]", 23700]
]}

---

Reported MIC90 values are given for each entry in this list.
system: AmpC/CMY-expressing Enterobacteriaceae (n = 44); test: Broth microdilution MIC, ceftibuten/Compound 2 vs IV comparators; type: cell-based; conditions: iv

{"columns": ["compound", "MIC90"],
 "data": [
  ["C[C@@H](O)[C@H]1C(=O)N2C(C(=O)O)=C(S[C@@H]3CN[C@H](C(=O)N(C)C)C3)[C@H](C)[C@H]12", "0.5 µg/mL"],
  ["Nc1nc(/C(=C/CC(=O)O)C(=O)N[C@@H]2C(=O)N3C(C(=O)O)=CCS[C@H]23)cs1 [Ceftibuten, ceftibuten, reference compound]", "≥ 32 µg/mL"],
  ["NC[C@H]1O[C@H](O[C@H]2[C@H](O)[C@@H](O[C@H]3O[C@H](CO)[C@@H](O)[C@H](N)[C@H]3O)[C@H](N)C[C@@H]2N)[C@H](N)C[C@@H]1O", "≥ 32 µg/mL"],
  ["CN(C)c1cc(NC(=O)CNC(C)(C)C)c(O)c2c1C[C@H]1C[C@H]3[C@H](N(C)C)C(O)=C(C(N)=O)C(=O)[C@@]3(O)C(O)=C1C2=O", "4 µg/mL"]
]}

---

assay: Excipient screening: solubility in SEDDS excipients; type: physicochemical; conditions: PEG-1500, 50 °C, organic solvent or mixture, thermodynamic from solid, PEG-1500; 50° C.

{"columns": ["molecule", "solubility"],
 "data": [
  ["CCOB1Oc2c(cccc2C(=O)OCOC(=O)C(CC)CC)C[C@@H]1NC(=O)CC [Compound 1-ethanolate]", "> 382 mg/mL"]
]}
